Measured TCR Mut RLU/WT RLU, listed per entry for reference.
target: T1, KRAS G13D (G13D-RT6) peptide on HLA-DQA1*05:01 / HLA-DQB1*03:01 (human); assay: NFAT-luciferase; Jurkat-NFAT-Luc with the TCR and Lovo-DPA0301:DPB0501 cells loaded with G13D-RT6; against wild-type B8.2.4 TCR; full-length, on cells; conditions: chains Valpha:Vbeta
T1 chain: YKLVVVGAGDVGKSAL
Number only, no unit.

INSERT INTO measurements (binder, numericresult) VALUES
  ('B8.2.4 TCR mutant β98P-D (protein) chain 1: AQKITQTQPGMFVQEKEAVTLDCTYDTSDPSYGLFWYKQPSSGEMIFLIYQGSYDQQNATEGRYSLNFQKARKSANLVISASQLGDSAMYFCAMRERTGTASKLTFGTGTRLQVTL chain 2: DVKVTQSSRYLVKRTGEKVFLECVQDMDHENMFWYRQDPGLGLRLIYFSYDVKMKEKGDIPEGYSVSREKKERFSLILESASTNQTSMYLCASSQTVDPQHFGDGTRLSIL', 0.8),
  ('B8.2.4 TCR mutant β95Q-A (protein) chain 1: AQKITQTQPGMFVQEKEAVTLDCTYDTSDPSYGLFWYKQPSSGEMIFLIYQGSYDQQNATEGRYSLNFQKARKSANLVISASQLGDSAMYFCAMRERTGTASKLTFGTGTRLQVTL chain 2: DVKVTQSSRYLVKRTGEKVFLECVQDMDHENMFWYRQDPGLGLRLIYFSYDVKMKEKGDIPEGYSVSREKKERFSLILESASTNQTSMYLCASSATVPPQHFGDGTRLSIL', 0.86),
  ('B8.2.4 TCR mutant β95Q-Y (protein) chain 1: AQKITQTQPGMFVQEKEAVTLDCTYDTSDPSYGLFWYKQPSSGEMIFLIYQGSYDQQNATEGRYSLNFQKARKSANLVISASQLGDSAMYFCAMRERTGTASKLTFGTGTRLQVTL chain 2: DVKVTQSSRYLVKRTGEKVFLECVQDMDHENMFWYRQDPGLGLRLIYFSYDVKMKEKGDIPEGYSVSREKKERFSLILESASTNQTSMYLCASSYTVPPQHFGDGTRLSIL', 0.92),
  ('B8.2.4 TCR mutant β97V-S (protein) chain 1: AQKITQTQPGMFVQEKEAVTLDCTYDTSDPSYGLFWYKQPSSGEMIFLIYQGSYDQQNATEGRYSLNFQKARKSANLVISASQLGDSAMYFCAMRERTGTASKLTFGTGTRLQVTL chain 2: DVKVTQSSRYLVKRTGEKVFLECVQDMDHENMFWYRQDPGLGLRLIYFSYDVKMKEKGDIPEGYSVSREKKERFSLILESASTNQTSMYLCASSQTSPPQHFGDGTRLSIL', 0.78);

input: Query TCR Mut RLU/WT RLU for B8.2.4 TCR mutant β98P-V (protein) chain 1: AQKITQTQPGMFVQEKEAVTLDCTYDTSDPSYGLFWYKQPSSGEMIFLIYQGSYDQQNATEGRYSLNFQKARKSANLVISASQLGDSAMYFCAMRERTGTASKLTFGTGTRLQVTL chain 2: DVKVTQSSRYLVKRTGEKVFLECVQDMDHENMFWYRQDPGLGLRLIYFSYDVKMKEKGDIPEGYSVSREKKERFSLILESASTNQTSMYLCASSQTVVPQHFGDGTRLSIL
output: 0.63
